Molecular target: human recombinant DPIV enzyme (Homo sapiens)
Construct: Secreted DPIV (lacking membrane anchor) was enriched from HEK293 cell culture supernatant
Sequence (P27487 29-766 limits assumed): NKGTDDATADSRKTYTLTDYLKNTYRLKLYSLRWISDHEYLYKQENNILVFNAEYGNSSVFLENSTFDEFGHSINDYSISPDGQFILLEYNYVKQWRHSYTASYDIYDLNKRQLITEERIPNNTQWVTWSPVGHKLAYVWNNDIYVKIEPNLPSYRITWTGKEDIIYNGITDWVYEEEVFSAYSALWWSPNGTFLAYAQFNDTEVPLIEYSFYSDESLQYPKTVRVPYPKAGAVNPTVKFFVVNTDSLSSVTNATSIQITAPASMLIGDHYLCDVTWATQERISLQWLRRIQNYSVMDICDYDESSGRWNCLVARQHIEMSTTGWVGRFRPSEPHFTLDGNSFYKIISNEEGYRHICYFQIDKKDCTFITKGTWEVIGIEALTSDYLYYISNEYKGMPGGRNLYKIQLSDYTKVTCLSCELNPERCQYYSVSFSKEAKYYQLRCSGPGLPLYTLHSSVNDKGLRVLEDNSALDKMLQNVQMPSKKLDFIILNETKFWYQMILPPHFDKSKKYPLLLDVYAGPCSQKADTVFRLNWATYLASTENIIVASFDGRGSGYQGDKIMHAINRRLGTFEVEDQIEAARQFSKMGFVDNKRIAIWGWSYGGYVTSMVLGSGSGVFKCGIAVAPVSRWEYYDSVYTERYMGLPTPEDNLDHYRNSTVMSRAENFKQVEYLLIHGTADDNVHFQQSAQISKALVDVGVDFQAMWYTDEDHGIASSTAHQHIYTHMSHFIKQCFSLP
Assay: Human recombinant DPIV activity assay (fluorometric end point, Gly-Pro-AMC substrate)
Details: enriched human recombinant DPIV, Gly-Pro-AMC 0.02 mM, 12 points concentration response curve, duplicates
Method: Human Recombinant DPIV Activity Assay The DPIV assay used was a fluorometric end point assay (excitation 355 nm; emission 460 nm) using enriched human recombinant DPIV enzyme (21.3 μU/μl), and Gly-Pro-AMC (Bachem I-1225) as substrate (0.02 mM). […] IC50 values of the compounds were calculated based on a 12 points concentration response curve. Each concentration was measured as duplicates. […] A MSR was calculated based on a test/retest analysis and a retrospective analysis. […]
Structures can show the parent of a compound that is named as a salt.
Assignment: determine reported IC50 for the given compounds.

For each of the items listed, what is its IC50?
1. CN(C[C@H](O)[C@H](N)Cc1ccccc1)S(C)(=O)=O [Example 21, Hydrochloride]
2. N[C@H](Cc1ccccc1)[C@@H](O)Cn1cccn1 [Example 13, Hydrochloride]

["9.76 µM", "2.99 µM"]

Hi! Can you tell me IC50 for each of these compounds?
1. N[C@H](Cc1ccccc1)[C@@H](O)CN1CCCC(c2ccccc2)C1 (stereo partly shown) [Example 6, Dihydrochloride]
2. N[C@H](Cc1ccccc1)[C@@H](O)Cn1cnc2ccccc21 [Example 15, Hydrochloride]

1. 2.73 µM
2. 4.33 µM
